Provide the reported protein stability index of each item.
# Procedure text: protein stability index of a GFP-peptide fusion (yeast GPS) (PSI 1-4); higher = more stable; sorted into four equal gates, so the index is relative within each strain
# Measurement conditions: san1∆

State, in one line, measured protein stability index of RFVIWTEAAFTKLDQVW [RPL4A] 2.28

Please report protein stability index for the following sequence: RLTFKPWVVYLQILAML [YMR129W/POM152] 1.1

Retrieve protein stability index measured for YSKDAKEIYYTPDPSEL [FAS2] and print it. 2.6

Give a short answer stating reported protein stability index for AFADRLGQYVQAHTLYN [PRE10] . 1.74

Give the value of protein stability index reported for the following: GDKEATAPLIQRKNKKN [RPN8] 3.18

Fill in protein stability index for record DKQYRTAVATLLKELSK [SMC3] 3.06

Input WTMAFRTMDDIKDSVRE [ECM29] , output reported protein stability index. 2.67

====

# Procedure text: protein stability index of a GFP-peptide fusion (yeast GPS) (PSI 1-4); higher = more stable; sorted into four equal gates, so the index is relative within each strain
# Measurement conditions: san1∆
What protein stability index was measured for each of the following?
// keep it numeric: no unit symbol after the value

Read off the recorded protein stability index for FKGALTIKILPENTAMF [YMR129W/POM152] 2.33

Identify measured protein stability index corresponding to LEGITTTIDSLNAELES [SMC3] 2.27

// fetch protein stability index given entry KTTNTTPSFSFGAKSDE [YJL041W/NSP1] 3.09

Consider the sequence FNGYNPEKKEMIQEVIV [FAS2] . State its measured protein stability index. 3.4

Give me measured protein stability index, please, for this sequence: EGEKCHPQDFGNPGRIR [SEC65] 2.81

Tell me its protein stability index given LNIGLGAVGLKDLTLCR [YCS4] as the entry. 2.15

Return reported protein stability index. Input sequence: YFLDVKCPGCLNITTVF [RPS27A] 2.19

Kindly indicate its recorded protein stability index. Item: RAFTKKVSSASAAASES [RPL16B] 2.16

Annotate the sequence KNPHDIIEGINAGEIEI [RPL12A] with its measured protein stability index. 2.22

Look up and report measured protein stability index for this entry: KFLREVFVDGEANWPLP [RPO21] 3.04

Look up and report measured protein stability index for this entry: SNININVNNNNIGQQQV [SWI1] 3.07

Supply recorded protein stability index for TLHLVLRLRGGGKKRKK [RPS31] here. 2.83

Provide only the value of recorded protein stability index for FIAVGQILPESQWNDSS [SIR3] 2.61

For the sequence TRSLKYGKLRNGMFCQV [RRP4] , give its measured protein stability index value. 1.09

In one line, give reported protein stability index of the entry NAIFQMESEEVPLTKRY [PCI8] . 2.85

Please report the measured protein stability index for VTHMDQIFVRGSQIKFI [SMD3] 2.17

Specify protein stability index for YELYINKLTILGRDYPI [IRR1] and stop. 1.44

Look up and state reported protein stability index for SCGYPSAKTRSHNWAAK [RPL37B] 3.3

Give me measured protein stability index, please, for this sequence: TNDDSIKNLTVQLSPSN [RGR1] 2.56

For the sequence INGINWRFHTPQKYVLH [SIN4] , give its measured protein stability index value. 1.83

Using the record for NASQMGNTGSGGYDNAW [RPB3] , state its measured protein stability index. 3.52

Determine from records and report protein stability index for LKVRKGHIAKLMATEYQ [RPB2] 1.28

For the sequence TGALINNLEPRQTTSNT [RPN11] , give its measured protein stability index value. 2.62

State its protein stability index: TKLIISGQLNFEIDGDV [PCI8] 1.87

Tell me measured protein stability index for EGLDELPKIIQLQGPQW [SOH1] please. 3.18

Provide only the value of recorded protein stability index for LVSSGDRFIELISDQLL [YML103C/NUP188] 2.42

Give the reported value of protein stability index for this record: KTLTEEVTKSSHVENLE [YIL149C/MLP2] 2.86

Give protein stability index for the following sequence: LDDTTIPVGLMAQENSM [MCD1] 1.56

Write down protein stability index measured for item TAEINCFMHLLVQLFLW [RPN3] 1.68

Quick one: give measured protein stability index for LDDPEAVSKDPLLTKRK [DIS3] 3.34

====

# Procedure text: protein stability index of a GFP-peptide fusion (yeast GPS) (PSI 1-4); higher = more stable; sorted into four equal gates, so the index is relative within each strain
# Measurement conditions: pdr5∆
Measured metric: protein stability index
Respond with the number and no other words.

Give the reported value of protein stability index for this record: KLLKIPKFISEALAFTS [YDL116W/NUP84] 2.46

Quickly give me recorded protein stability index for ISEKDLVPKRCLFESLS [RPO31] 3.38

Provide one value: measured protein stability index of MAPLSLNFKDDKKYKGL [REC8] 2.61

Fill in reported protein stability index for this entry: VAFLDNDLGKFIPNKQL [RPN7] 3.02

Determine its reported protein stability index: SNDVLKPETPKGPIIIS [SIR2] 2.92

Provide measured protein stability index value, entry: GNTVVDGEGKVDSISLH [YCG1] 3.53

Using known records, supply protein stability index for YQMHIKTSKDIAVLRSK [FAS1] 2.14

Identify the reported protein stability index for the following entry. STKIIMLLLNDSVENSS [SRB8] 2.15

Retrieve protein stability index measured for VKSVNDPSQNRLTGSLL [RPC37] and print it. 3.48

Please indicate protein stability index recorded for NNTTPSSTGNANTSNNL [YJL041W/NSP1] 3.29

Provide one value: measured protein stability index of GNLSKREIQIDAVLKIF [SRB8] 2.83

For the sequence NKIKLNILKILSSLILK [SRB8] , report protein stability index. 1.73

Item IHFREHQSELIIKQTVH [YMR129W/POM152] : provide protein stability index 2.85

Return the recorded protein stability index value; entry: KVLQLLRLTRINSGTFV [RPL7A] 1.62

Quick one: give measured protein stability index for LVFCKHITSVPISAVLR [GRR1] 1.72

Recall and state the measured protein stability index for IWLLSYIQYLGHLPEVS [ECM29] . 1.9

Report protein stability index for QDVLQMLGRAGRPRYDT [BRR2] 2.56

Return reported protein stability index. Input sequence: MAESHRLYVKGKHLSYQ [RPL33A] 2.84

Provide protein stability index value for the following sequence: QLDSYLVNGFSQSQQKL [MED2] 2.35

Tell me protein stability index reported for SNETIGEIQLLFQRQKL [IRR1] 2.8

Annotate the sequence QSQPQEKFSEKMLKIWT [ECM29] with its measured protein stability index. 3.08

Report measured protein stability index; entry is LNIGLGAVGLKDLTLCR [YCS4] 2.41

Quick one: give measured protein stability index for EVALFSQKAKLMTFNAE [YLR335W/NUP2] 1.47

Report protein stability index, nothing else, for this sequence: IRDSGDRIDLRYSKRAG [RPO21] 3.34

Identify measured protein stability index corresponding to DQVVVRGIDTLQKKVAS [RPB3] 3.29

Answer with the recorded protein stability index of EPHAVSLAWSADGQTLF [ASC1] only. 3.06

# return recorded protein stability index for entry GKIVGFDEFMNVVIDEA [SME1] 3.33

Look up protein stability index of PRFNRENKVSPADAAKK [RPS26A] and report it. 2.73

Please list protein stability index recorded for the sequence LYNDADVLTLENIQEGT [CDC53] 3.03

Provide one value: measured protein stability index of FFAAIRFVLSDDYSNLK [SMC3] 2.68

Output protein stability index of IQNQSPQFNSPYDSNNS [SWI1] 3

Tell us which protein stability index value is on record for NLLIQRLNFNQNSSKIV [SWI3] 2.81

Consider the sequence LTIFDSVDESARIKDAF [YJL039C/NUP192] and give its recorded protein stability index. 3.07

Return reported protein stability index. Input sequence: PFTDRSVVRGNTFKVLS [COB] 2.56

Provide measured protein stability index value, entry: EKKAEYFAKLREYLEEY [RPP0] 3.31

Retrieve protein stability index measured for SGTSSDPDTKKVKESPA [YIL149C/MLP2] and print it. 3.2

Supply measured protein stability index of LFRAIYLYCLDNNITEM [YCG1] in your reply. 2.09

Give the measured protein stability index for GSIEEPELNVSLNLTDD [MCD1] 3.44

Read off the recorded protein stability index for ENIIQMEMIENRTMDGK [FAS1] 2.81

State, in one line, measured protein stability index of VFKLSTNLISKISLLRP [SWP82] 2.43

Give reported protein stability index value for QETQHGNITRGLAVGLA [RPN2] 2.55

Fill in reported protein stability index for this entry: NDIDDLDMELAELDPSL [SEC65] 3.23

State its protein stability index: IRRTFNIVNDFTPEEEA [SKP1] 3.28

Could you please provide reported protein stability index for YVESDEDDTQIVTGNLV [IRR1] ? Thanks! 3.47

Answer with the recorded protein stability index for the sequence listed here: NNYKDLLAVAIAASYHY [RPP0] 1.95

Report measured protein stability index; entry is SPAVKKLLQLAGVEDVY [RPS2] 1.76

Read off the recorded protein stability index for GSAELRNSYPASFYSVN [RPN3] 3.15

Give reported protein stability index value for PKSSPLKKNNYNSFPHS [SIR4] 3.08

Output protein stability index of KYMVKGGLSGEESIKIY [UBP6] 2.47

Determine its reported protein stability index: MEIVANAKESNYTDLIW [MED1] 3.41

// Input: TGALINNLEPRQTTSNT [RPN11] . Output its protein stability index only. 3.25

# return recorded protein stability index for entry INIQSFKDVEHISFNFS [BRR2] 2.79

Answer with the recorded protein stability index for the sequence listed here: YLREDQMIDTSILPTRD [NUT1] 2.98

Item ESVLPAARYDYAVAEQC [QCR2] : provide protein stability index 3.25

Input NSSNLSYNNTGISDDEN [RRP4] , output reported protein stability index. 2.87

Dear colleague, please send me the reported protein stability index for KLKHMVLDKMHARARGP [RET1] when you can. 2.84

Dear colleague, please send me the reported protein stability index for KRFLILQGEVENIAQMK [SMC4] when you can. 2.98

Specify measured protein stability index for KSMLSKPETLSIGKNPF [SWI3] . 2.91

Using known records, supply protein stability index for FNAPATGNGTTTTSNTS [YOR098C/NUP1] 2.83

Assign protein stability index to the following record: FYGVLDQGNGWLYVYET [RPN6] 2.65
